Give inhibition for every item shown.
target: Genome polyprotein (Dengue virus type 2 (strain 16681-PDK53)); test: flavivirus cap methylation enzyme inhibition – biochemical, confirmation dose response, primary screen (AID 588689); conditions: Dengue-2 NS5 methyltransferase capping enzyme assay, at 25 µM, active compounds read high
Screen size: about 340,000 compounds; about 1,000 (0.29%) were called active. A selection follows. Entries with a potency or affinity are not part of this list.
Reply numerically in %, unit not repeated.

Query: Returns the measured inhibition for the input molecule. Input: `Cc1ccc(F)c(NC(=O)CCc2ccccc2)c1`
Reply: -5.56

Query: Another: `CC1(C)CC(=O)C(C(N)=NC(=O)c2ccccc2)=C(O)C1`
Reply: 0

Query: Would you kindly repeat that for `CC(=O)OCC1=C(C(=O)O)N2C(=O)[C@@H](NC(=O)Cc3ccccc3)[C@H]2SC1` ?
Reply: -1.45

Query: Then this molecule: `Cc1onc(-c2ccccc2)c1C(=O)OCC(=O)Nc1ccccc1`
Reply: 8.65

Query: Moving on to the next molecule: CCCCN1C(=O)NC(NS(=O)(=O)c2ccc(N)cc2)(C(F)(F)F)C1=O (stereo not given)
Reply: 1.6

Query: What do you have for `Cc1ccc(NC(=O)/C(C#N)=N/Nc2ccc(C(=O)O)cc2)c(C)c1` ?
Reply: 3.18

Query: One more molecule: `CCCCn1c(N)c(N(CCC(C)C)C(=O)CCCc2nc3ccccc3s2)c(=O)[nH]c1=O`
Reply: 0.96

Query: Moving on to the next molecule: `Cc1ccc(CNC(=O)C(C(=O)NCc2ccc(C)o2)c2ncc(C(F)(F)F)cc2Cl)o1`
Reply: -13.8

Query: Now consider `Cc1ccc(S(=O)(=O)NCCC(=O)OCC(=O)N(Cc2ccccc2)C(C)(C)C)cc1` .
Reply: 7.2

Query: Another molecule: `COCCN(C(=O)CSc1nnc(-c2ccccc2F)n1N)c1c(N)n(Cc2ccccc2)c(=O)[nH]c1=O`
Reply: 11.2

====

target: Genome polyprotein (Dengue virus type 2 (strain 16681-PDK53)); assay: flavivirus cap methylation enzyme inhibition – biochemical, confirmation dose response, primary screen (AID 588689); conditions: Dengue-2 NS5 methyltransferase capping enzyme assay, at 25 µM, active compounds read high
About 1,000 (0.29%) of roughly 340,000 compounds were called active. The list is a sample of the results. Measured potencies and affinities stand elsewhere.
Provide the recorded inhibition for the entries that follow.
Give the value, in units of %, as a plain number.

Query: Fill blank: measured inhibition of the compound `CCN1CCN(C(=O)CCc2nnc(CCc3c[nH]c4ccccc34)o2)[C@@H](C)C1=O` is ____.
Reply: -13.8

Query: Follow-up entry: `Cc1cccc(CCNC(=O)CCc2nnc(CCc3ccccc3)o2)n1`
Reply: -0.91

Query: Same for `CSc1nnc(-c2ccccc2N=Cc2c(C)[nH]n(-c3ccccc3)c2=O)c(=O)[nH]1`
Reply: 11.5

Query: Would you kindly repeat that for `COc1cc(/C=C2\C(C)=C(C#N)c3nc(N)c(C#N)c(C)c32)ccc1OCC(=O)O` ?
Reply: -6.96

Query: Now consider `CCCCN1CC[C@H]2C=CC[C@@H](C(=O)N3CCN(c4ccccc4)CC3)[C@H]2C1=O` .
Reply: -5.46

Query: Now give it for `Cc1ccc(OCC(=O)NCCNC(=O)c2cnccn2)cc1C` too.
Reply: -4.45

Query: Cc1sc(N2C(=O)C3C4C=CC(C4)C3C2=O)c(C#N)c1C (configuration not stated) ?
Reply: -2.18

Query: Ok, now `CCCn1c(SCc2cc(=O)[nH]c3ccccc23)nc2c1c(=O)n(C)c(=O)n2C`
Reply: -2.04

Query: # iterate: CC1CCc2c(sc(NC(=O)c3ccccc3C(=O)O)c2C#N)C1 (configuration not stated)
Reply: -0.74

Query: Another: N#Cc1c(NC(=O)C2CC=CCC2C(=O)O)sc2c1CCCCCC2 (configuration not stated)
Reply: 5.78

Query: Same again, this time with `CCOC(=O)C(=O)NNc1ccccc1OC`
Reply: -3.11

Query: Same question for `COc1ccc(-c2cc(C(=O)Nc3sc4c(c3C#N)CCCC4)c3ccccc3n2)cc1OC` please.
Reply: -4.06

Query: Same read-out for CCC(C)(C)C1CCc2c(sc(NC(=O)c3ccoc3C)c2C(N)=O)C1 (configuration not stated) ?
Reply: -3.22

Query: How about `COc1ccc(O)c(/C=N/c2nc3ccccc3n2C)c1` ?
Reply: 3.47

Query: Same question for `CCn1c(/C=N/c2nc3ccccc3n2C)nc2ccccc21` please.
Reply: -0.7

Query: Next: `CCOC(=O)CSc1nc(N)c(C#N)c(-c2ccc(OCC)cc2)c1C#N`
Reply: -3.48

Query: `CCOC(=O)c1c(NC(=O)CSc2nnnn2C)sc(C)c1C` , same question.
Reply: -3.98

Query: Moving on to the next compound: CCC1CCc2c(sc(NC(=O)C3CC=CCC3C(=O)O)c2C#N)C1 (configuration not stated)
Reply: 27.5

Query: Repeat for the following compound: `O=C(CCCCCNc1nc(=S)[nH]c2ccccc12)NCCC1=CCCCC1`
Reply: -4.45

Query: Next up: `Cc1cc2nc(/C(C#N)=C\c3ccc(-c4ccccc4C(=O)O)o3)[nH]c2cc1C`
Reply: -2.36

Query: Try the compound `CCNc1nc(SC(C(C)=O)C(C)=O)nc(N(C)C)n1`
Reply: -1.07

Query: Follow-up item: `Cc1nn(-c2ccc3ccccc3c2)c(=O)c2ccccc12`
Reply: -4.49

====

molecular target: Genome polyprotein (Dengue virus type 2 (strain 16681-PDK53)); test: flavivirus cap methylation enzyme inhibition – biochemical, confirmation dose response, primary screen (AID 588689); conditions: Dengue-2 NS5 methyltransferase capping enzyme assay, at 25 µM, active compounds read high
The campaign covered roughly 340,000 compounds. About 1,000 (0.29%) were called active. A selection follows. Results with a measured potency or affinity are listed apart.
VALUE TYPE: inhibition

Query: // inhibition lookup, key: `CCN(CC)c1ccc(C(=O)c2ccccc2C(=O)O)c(O)c1`
Reply: 8.17% (inactive)

Query: // next record `Cn1ncc([N+](=O)[O-])c1C(=O)Nc1cccc2ccccc12`
Reply: -4.99% (inactive)

Query: // repeat for `Cc1cc(C(F)(F)F)nn1CC(=O)N1CCOCC1` and report
Reply: -2.05% (inactive)

Query: Also `Cc1ccc(NC(=O)Nc2cc(C)on2)cc1` , if possible.
Reply: -0.74% (inactive)

Query: Subsequent entry: `COc1cccc(-c2ncc3ccccc3c2COC(=O)c2cccs2)c1`
Reply: -7.94% (inactive)

Query: Next: `CN(C)c1ccc(C(=O)c2ccccc2C(=O)O)c(O)c1`
Reply: -0.81% (inactive)

====

biological target: Genome polyprotein (Dengue virus type 2 (strain 16681-PDK53)); assay: flavivirus cap methylation enzyme inhibition – biochemical, confirmation dose response, primary screen (AID 588689); details: Dengue-2 NS5 methyltransferase capping enzyme assay, at 25 µM, active compounds read high
Screen size: about 340,000 compounds; about 1,000 (0.29%) were called active. The list is a sample of the results. Results with a measured potency or affinity are listed apart.
For each of the compounds below, state its inhibition.
Entry rule: numbers only, all in %.

Query: What does the data say about its inhibition? Entry: `Cc1ccc(OCC(=O)OCC(=O)Nc2ccc3c(c2)OCO3)cc1C`
Reply: -3.82

Query: Another compound: O=C(CSc1ncn[nH]1)N1N=C2/C(=C/c3ccco3)CCCC2C1c1ccco1 (stereo not given)
Reply: -4.57

Query: # iterate: `CCOC(=O)c1cnc2c(C)c(Cl)ccc2c1N1CCN(CC)CC1`
Reply: -10.3

Query: Same lookup for `COc1c2ccoc2cc2oc(C)cc(=O)c12` , please.
Reply: -4.89

Query: Try this compound too: `Cc1cccc(C(C)C)c1NC(=O)COC(=O)CNS(=O)(=O)c1ccccc1`
Reply: 0

Query: Follow-up entry: `O=C(C[C@@H]1C/C=C\C[C@H](Cc2ccc(F)cc2)C(=O)OCCNC1=O)N[C@H](CO)Cc1ccccc1`
Reply: -4.01

Query: Field entry: `O=C(COC(=O)c1ccc2c(c1)S(=O)(=O)N=C1CCCCCN12)NCc1cccs1`
Reply: -3.45

Query: Try `O=C(O)c1ccc2c(c1)C(=O)N(c1ccc(Nc3ccccc3)cc1)C2=O` next.
Reply: 7.94

Query: Now the same for `COc1ccc(NS(=O)(=O)c2ccc(Cl)c(N)c2)cc1Br`
Reply: -3.69

Query: Can you handle `COc1cccc(CNC(=O)[C@H](C)NC(=O)C2CCN(S(=O)(=O)c3ccccc3)CC2)c1` next?
Reply: -6.35

====

Assign inhibition to each entry below.
biological target: Genome polyprotein (Dengue virus type 2 (strain 16681-PDK53)) (UniProt P29991); experiment: flavivirus cap methylation enzyme inhibition – biochemical, confirmation dose response, primary screen (AID 588689); conditions: Dengue-2 NS5 methyltransferase capping enzyme assay, at 25 µM, active compounds read high
Screen size: about 340,000 compounds; about 1,000 (0.29%) were called active. Not all results are given here. Measured potencies and affinities stand elsewhere.
Quick note: give the figure in %, leave out the unit.

Query: Data request, read-out inhibition, for `O=C(O)c1ccc(-c2cccc(Cl)c2)o1`
Reply: -4.79

Query: // same read-out, input: `Cc1cc2cc(C#N)c(SCC(=O)Nc3nonc3C)nc2cc1C`
Reply: 3.66

Query: Try this compound too: `CSc1ccc(-c2sc(Nc3ccccc3)n[n+]2-c2ccccc2)cc1`
Reply: -11.6

Query: Param item: CCOc1ccc(N2C(=O)CC(N3CCOCC3)C2=O)cc1 (stereo unspecified)
Reply: -2.04

Query: Can you handle `O=C(O)C/C(=C\c1ccc(N2CCOCC2)c([N+](=O)[O-])c1)c1nc2ccccc2s1` next?
Reply: 6.96

Query: Try this compound next: `COc1ccc(NC(=O)CN(C)C(=O)c2cccc(S(=O)(=O)N3CCN(C)CC3)c2)cc1`
Reply: -5.07

Query: Then this compound: `O=C(CCn1cnc2ccccc2c1=O)Nc1ccc(Cl)c(Cl)c1`
Reply: 1.31

Query: What about `Cc1ccc(/C=C(\CCC(=O)O)c2nc3ccccc3s2)cc1[N+](=O)[O-]` ?
Reply: 13.8

Query: Request: `CC(C)CCN(C(=O)C1CCCC1)c1c(N)n(Cc2ccccc2)c(=O)[nH]c1=O`
Reply: 0.73

Query: Okay, and `O=C(O)CC/C(=C\c1ccc(N2CCOCC2)c([N+](=O)[O-])c1)c1nc2ccccc2s1` ?
Reply: 24

Query: How about `O=S(=O)(NCCc1ccc(F)cc1)c1ccc(F)cc1Br` ?
Reply: -1.99

Query: Ok, now `COc1ccc(OC)c(N2C(=O)C(Cl)=C(N3CCCCC3)C2=O)c1`
Reply: 0.68

Query: Quick one: `Cc1[nH][nH]c(=O)c1C(c1ccc(-c2ccc(Cl)c(Cl)c2)o1)c1c(C)[nH][nH]c1=O`
Reply: 61.3

Query: Next entry: `CCc1ccc(N2CCN(C(=O)N3CCOCC3)CC2)cc1`
Reply: -8.84

Query: What do you get for `CC(C)CCNC(=O)c1ccc(-n2cnc3cccnc32)cc1` ?
Reply: -2.72

Query: Now try `CCCn1c(=O)c2ccccc2n2c(SCC(=O)c3ccc(CC)cc3)nnc12` .
Reply: -1.12

Query: Now consider `CC(=O)Nc1ccc(-c2sc(Nc3cccc4ccccc34)n[n+]2-c2ccccc2)cc1` and answer again.
Reply: -7.03

Query: Another: `O=C(CN1CCN(c2ccccc2F)CC1)c1ccc(O)c(O)c1`
Reply: 6.62

Query: Another compound to look at: `CCc1ccc(N2C(=O)C(Cl)=C(N3CCCCCC3)C2=O)cc1`
Reply: -5.23

Query: And the next one, `CCOC(=O)N1CCN(Cc2nc3ccc([N+](=O)[O-])cc3c(=O)n2-c2ccc(OC)cc2OC)CC1` ?
Reply: -7.83

Query: Likewise for `CCN1C(=O)[C@H]2[C@@H](c3ccc(C)cc3)N3C(=O)N(c4cccc(Cl)c4)C(=O)[C@@]3(Cc3ccccc3)[C@H]2C1=O` ?
Reply: 0
